B1: EEHEE_rd4_0003 (parent)
chain: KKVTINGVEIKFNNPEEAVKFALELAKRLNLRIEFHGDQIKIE

# Variants of: B1
# Procedure Text: folding stability dG (cDNA display proteolysis); higher = more stable
# Condition Summary: PBS, room temperature
Endpoint Label: folding stability dG (kcal/mol)
The reply should contain only the number, in kcal/mol.

| Residue String | folding stability dG [kcal/mol] |
| --- | --- |
| KKVTINGVEIKFNNPEEAVKFATELAKRLNLRIEFHGDQIKIE | 2.29 |
| KKVTINGVEIKFNNPEDAVKFALELAKRLNLRIEFHGDQIKIE | 2.68 |
| KKVTINGVEIKFNNPEEAVKFALELAKRLNLRIEFHGDQIQIE | 2.27 |
| KKVTINGVEIKFNNPEEAVKFALFLAKRLNLRIEFHGDQIKIE | 2.58 |

// folding stability dG value for KKVTINRVEIKFNNPEEAVKFALELAKRLNLRIEFHGDQIKIE : 1.87

Data credit: the MegaScale stability set (Tsuboyama et al. 2023)
